Measured values drawn from patent US12419877B2 for this set.

- assay notes: Solubility experiments (approximate solubility by solvent aliquot addition)
- Assay type: physicochemical
- condition details: organic solvent or mixture, thermodynamic from solid; Solvent: 3-Methyl-1-butanol; ca. 50° C.; read-out: Solubility (mg/mL) (ca. 50° C.)
- Method: Approximately 20 mg of Form A of Compound (1) was placed in each of 48 vials and 5 volume aliquots of the appropriate solvent systems were added to the appropriate vial. Between each addition, the mixture was checked for dissolution and if no dissolution was apparent, the mixture was warmed to ca. 50° C. and checked again. This procedure was continued until dissolution was observed or until 100 volumes of solvent had been added.
experimental endpoint: solubility

INSERT INTO measurements (compound, experimental_endpoint, value_measured) VALUES
  ('O=C(O)CNC(=O)c1ncc(-c2cccc(Cl)c2)cc1O [Form A of Compound (I)]', 'solubility', '< 10 mg/mL');
